target_desc: HLA-B*5301 (human), P01889
experiment_notes: competition
study_conditions: modification not given
measurement_kind: IC50 (nM)
Just the number in nM, nothing appended.

Looking up FPVRPQVPL [HIV nef 84] , I see its IC50 listed as 92
